- target under test: Cathepsin K (Homo sapiens, UniProt P43235)
- Sequence (P43235 115-329, species assumed): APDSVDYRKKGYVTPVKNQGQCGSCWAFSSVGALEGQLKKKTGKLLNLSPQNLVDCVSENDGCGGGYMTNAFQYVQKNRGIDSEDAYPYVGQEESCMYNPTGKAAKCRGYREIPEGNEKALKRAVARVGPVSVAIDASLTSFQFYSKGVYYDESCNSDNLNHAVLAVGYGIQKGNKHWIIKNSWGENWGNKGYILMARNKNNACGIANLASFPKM
- protocol description: Cathepsin K inhibition, fluorogenic peptide substrate kinetic assay (selectivity)
- Format: biochemical
- test context: ratio of cathepsin K inhibition constant to cathepsin S inhibition constant
measured attribute: Selectivity for Cat. S over Cat. K

smiles data	measurement
CCC[C@@H](CNc1ccc(OC(F)(F)F)cc1)NC(=O)[C@@H](CC(=O)N1CCOCC1)c1ccccc1	+ (+, >10)
O=C(NCCNc1ccc(F)cc1)O[C@@H](CC1CCCCC1)C(=O)N1CCOCC1	+ (+, >10)
CC1(C)CN([C@H]2COC[C@@H]2NC(=O)O[C@@H](CC2CCCCC2)C(=O)N2CCOCC2)c2ccc(F)cc21	+ (+, >10)

Provenance of the data: patent US7732449B2
